# SARS-CoV-2 infection rate listing for each entry below
Tested on: A549-ACE2 infected with SARS-CoV-2
Assay: SARS-CoV-2 infection rate relative to DMSO; higher = more infection
Details: 30 µM; 24 h

Use these answered entries as a reference point.
Fill blank: measured SARS-CoV-2 infection rate of the molecule CN1C2C=C(c3sccc3Br)CC1CC2 (centres undefined) [NS-3861] is ____.
41%

Look up SARS-CoV-2 infection rate for this molecule: CC[C@@]1([C@H]2O[C@H]([C@H]3O[C@@](O)(CO)[C@H](C)C[C@@H]3C)C[C@H]2C)CC[C@H]([C@@]2(C)CC[C@]3(C[C@H](O)[C@@H](C)[C@@H]([C@H](C)[C@H](OC)[C@@H](C)C(=O)O)O3)O2)O1 [MONENSIN SODIUM]
17%

Any idea what SARS-CoV-2 infection rate was measured for CN1CCN(CCCN2c3ccccc3Sc3ccc(Cl)cc32)CC1 [prochlorperazine] ?
50%

Continue with the molecule presented below.
Fill in: SARS-CoV-2 infection rate of CCN(CC)CC1CCN(c2ncc3ncnc(Nc4ccc(F)c(Cl)c4)c3n2)CC1 [BIBU-1361] is ___
90%
